Parameter pIC50: see the listing below.
Target: UniProt:P10275
Assay: Competitive binding of 3H-DHT to baculovirus/Sf9 generated hAR extracts
Conditions: IC50, concentration at which one half of maximum binding of 1 nM 3H-DHT to hAR is inhibited; one hour at 4° C.; mean of multiple tests
pIC50: −log10 of the molar value.
testReadout: pIC50

CC1(C)CN(Cc2nnc(-c3ccc(O)cc3)o2)C(=O)C1Oc1ccc(C#N)c(C(F)(F)F)c1 (centres unmarked) | 7.39
CC1(C)CN(Cc2nnc(-c3ccccc3)o2)C(=O)C1Oc1ccc(C#N)c(C(F)(F)F)c1 (centres unmarked) | 6.77
CC1(C)CN(Cc2cccc(O)c2)C(=O)C1Oc1ccc(C#N)c(C(F)(F)F)c1 (single isomer, unassigned; (+)) [Example 14] | 7.64
COc1cccc(-c2nnc(C(C)N3CC(C)(C)C(Oc4ccc(C#N)c(C(F)(F)F)c4)C3=O)o2)c1 (centres unmarked) | 7.12
CCCCCN1CC(C)(C)C(Oc2ccc(C#N)c(C(F)(F)F)c2)C1=O (centres unmarked) | 6.57
CC1(C)CN(Cc2nc(-c3ccccc3)no2)C(=O)C1Oc1ccc(C#N)c(C(F)(F)F)c1 (centres unmarked) | 6.80
CC1(C)CN(Cc2ccncc2)C(=O)C1Oc1ccc(C#N)c(C(F)(F)F)c1 (centres unmarked) | 6.89
CC(c1nnc(-c2ccccc2)o1)N1CC(C)(C)C(Oc2ccc(C#N)c(C(F)(F)F)c2)C1=O (centres unmarked) | 7.09

* * *

Target: androgen receptor (Homo sapiens, UniProt P10275)
Sequence (P10275 whole entry Q868H, form open): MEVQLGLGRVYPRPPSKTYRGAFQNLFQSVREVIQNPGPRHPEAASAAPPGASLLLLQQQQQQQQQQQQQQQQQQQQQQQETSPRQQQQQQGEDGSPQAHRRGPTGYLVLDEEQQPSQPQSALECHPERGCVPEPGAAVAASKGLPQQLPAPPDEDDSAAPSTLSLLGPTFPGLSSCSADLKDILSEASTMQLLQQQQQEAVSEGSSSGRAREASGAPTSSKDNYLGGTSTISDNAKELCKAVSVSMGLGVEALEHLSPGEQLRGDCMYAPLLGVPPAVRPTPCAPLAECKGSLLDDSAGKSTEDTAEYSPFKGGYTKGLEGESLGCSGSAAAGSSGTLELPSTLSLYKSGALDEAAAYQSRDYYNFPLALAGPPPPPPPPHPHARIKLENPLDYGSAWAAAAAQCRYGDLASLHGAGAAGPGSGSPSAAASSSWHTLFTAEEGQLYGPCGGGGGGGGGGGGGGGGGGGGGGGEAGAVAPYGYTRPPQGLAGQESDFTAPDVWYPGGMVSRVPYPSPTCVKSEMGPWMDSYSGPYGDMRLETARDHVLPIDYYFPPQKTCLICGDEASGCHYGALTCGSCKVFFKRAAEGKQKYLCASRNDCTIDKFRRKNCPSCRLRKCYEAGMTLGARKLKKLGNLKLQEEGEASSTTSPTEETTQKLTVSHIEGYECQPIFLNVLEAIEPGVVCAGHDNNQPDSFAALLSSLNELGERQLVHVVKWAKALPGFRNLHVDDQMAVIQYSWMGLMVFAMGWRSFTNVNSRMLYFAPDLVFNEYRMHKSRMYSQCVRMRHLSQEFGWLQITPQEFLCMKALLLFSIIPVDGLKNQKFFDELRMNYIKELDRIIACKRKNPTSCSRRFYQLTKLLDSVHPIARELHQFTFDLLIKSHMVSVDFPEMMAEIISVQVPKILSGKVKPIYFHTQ
Experiment: AR Antagonist Cell Assay (MDA-MB453-MMTV clone 54-19, luciferase reporter)
Type: cell-based
Conditions: inhibition of induction by DHT (final concentration at 100 μM), 17 hr; compound 0.32-1000 nM; mean of multiple tests
Assign labels as follows, please: 1 for IC50 below 50 nM; -1 for IC50 equal to or exceeding 50 nM.

C[C@@H](c1ccc(F)cc1)N1CC(C)(C)[C@@H](Oc2ccc(C#N)c(C(F)(F)F)c2)C1=O (racemic) [Example 71] | 1
CSc1ccc(CN2CC(C)(C)C(Oc3ccc(C#N)c(C(F)(F)F)c3)C2=O)cc1 (racemic) [Example 22] | -1
CCCCN1CC(C)(C)C(Oc2ccc(C#N)c(C(F)(F)F)c2)C1=O (single isomer, unassigned; (+)) [Example 20] | 1
C[C@@H](c1ccc(F)cc1)N1CC(C)(C)[C@@H](Oc2ccc(C#N)c(C(F)(F)F)c2)C1=O (racemic) [Example 70] | -1
CC1(C)CN(Cc2ccc(C#N)cc2)C(=O)C1Oc1ccc(C#N)c(C(F)(F)F)c1 (stereo not shown) [Example 48] | -1
CCCN1CC(C)(C)C(Oc2ccc(C#N)c(C(F)(F)F)c2)C1=O (stereo not shown) [Example 4] | 1
CC1(C)CN(Cc2nnc(-c3ccccc3)o2)C(=O)C1Oc1ccc(C#N)c(C(F)(F)F)c1 (stereo not shown) [Example 56] | -1
CC1(C)CN(Cc2cccc(O)c2)C(=O)C1Oc1ccc(C#N)c(C(F)(F)F)c1 (stereo not shown) [Example 13] | -1
COC(=O)c1csc(CN2CC(C)(C)C(Oc3ccc(C#N)c(C(F)(F)F)c3)C2=O)n1 (stereo not shown) [Example 30] | -1
CC1(C)CN(Cc2ccccc2F)C(=O)C1Oc1ccc(C#N)c(C(F)(F)F)c1 (stereo not shown) [Example 15] | -1
CC(c1cccc(O)c1)N1CC(C)(C)C(Oc2ccc(C#N)c(C(F)(F)F)c2)C1=O (single isomer, unassigned; (+)) [Example 24] | 1
CSCN1CC(C)(C)C(Oc2ccc(C#N)c(C(F)(F)F)c2)C1=O (single isomer, unassigned) [Example 100B] | 1
CCCC(C)N1CC(C)(C)C(Oc2ccc(C#N)c(C(F)(F)F)c2)C1=O (racemic) [Example 72] | 1
CC1(C)CN(Cc2ccc(F)cc2)C(=O)C1Oc1ccc(C#N)c(C(F)(F)F)c1 (stereo not shown) [Example 17] | -1
COc1cccc(CN2CC(C)(C)C(Oc3ccc(C#N)c(C(F)(F)F)c3)C2=O)c1 (stereo not shown) [Example 12] | -1
COc1cccc(S(=O)(=O)N2CC(C)(C)C(Oc3ccc(C#N)c(C(F)(F)F)c3)C2=O)c1 (stereo not shown) [Example 74] | -1
CC1(C)CN(Cc2ccc3nsnc3c2)C(=O)C1Oc1ccc(C#N)c(C(F)(F)F)c1 (stereo not shown) [Example 39] | -1
COc1ccc(Cc2noc(CN3CC(C)(C)C(Oc4ccc(C#N)c(C(F)(F)F)c4)C3=O)n2)cc1 (stereo not shown) [Example 50] | 1
CC1(C)CN(Cc2ccccc2O)C(=O)C1Oc1ccc(C#N)c(C(F)(F)F)c1 (stereo not shown) [Example 11] | 1
CC1(C)CN(S(C)(=O)=O)C(=O)C1Oc1ccc(C#N)c(C(F)(F)F)c1 (single isomer, unassigned) [Example 100] | 1
CC1(C)CN(Cc2cc(O)cc(O)c2)C(=O)C1Oc1ccc(C#N)c(C(F)(F)F)c1 (stereo not shown) [Example 18] | 1
CC[C@H](C)N1CC(C)(C)[C@@H](Oc2ccc(C#N)c(C(F)(F)F)c2)C1=O [Example 1] | 1
CC1(C)CN(C(=O)c2ccccc2)C(=O)C1Oc1ccc(C#N)c(C(F)(F)F)c1 (single isomer, unassigned; (+)) [Example 105] | 1
COC(=O)c1ccc(CN2CC(C)(C)C(Oc3ccc(C#N)c(C(F)(F)F)c3)C2=O)cc1 (stereo not shown) [Example 37] | -1
CSCN1CC(C)(C)C(Oc2ccc(C#N)c(C(F)(F)F)c2)C1=O (stereo not shown) [Example 68] | -1
COc1ccc(-c2nc(CN3CC(C)(C)C(Oc4ccc(C#N)c(C(F)(F)F)c4)C3=O)no2)cc1 (stereo not shown) [Example 66] | -1
CC1(C)CN(Cc2ccccc2F)C(=O)C1Oc1ccc(C#N)c(C(F)(F)F)c1 (stereo not shown) [Example 16] | 1
CC1(C)CN(Cc2ccncc2)C(=O)C1Oc1ccc(C#N)c(C(F)(F)F)c1 (stereo not shown) [Example 35] | -1
